IC50 values for the compounds below.
molecular target: Human recombinant Histone Deacetylase 8 (HDAC8) (Homo sapiens (Human), UniProt Q9BY41); assay: HDAC8 Enzymatic Assay (HDAC-Glo I/II luminescence); format: biochemical; conditions: class symbols, Table 14; read-out: HDAC8 IC50
Sequence (Q9BY41 whole entry): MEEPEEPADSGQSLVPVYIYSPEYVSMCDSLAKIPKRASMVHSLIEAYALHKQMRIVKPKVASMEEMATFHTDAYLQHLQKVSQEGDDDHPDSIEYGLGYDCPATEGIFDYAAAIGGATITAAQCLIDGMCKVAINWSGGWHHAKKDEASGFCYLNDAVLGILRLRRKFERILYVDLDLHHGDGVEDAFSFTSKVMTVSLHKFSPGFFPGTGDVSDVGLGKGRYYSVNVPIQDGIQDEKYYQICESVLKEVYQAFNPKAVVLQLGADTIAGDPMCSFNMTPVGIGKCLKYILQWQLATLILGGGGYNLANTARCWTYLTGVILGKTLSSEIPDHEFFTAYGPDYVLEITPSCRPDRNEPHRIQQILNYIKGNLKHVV

// below: answered compounds
{"compound": "O=C(NO)C(Cc1ccccc1)n1ncc2cc(Br)ccc21 (stereo not drawn) [Compound I-0017]", "IC50": "0.05 to 0.2 µM"}
{"compound": "O=C(NO)C(Cc1ccccc1)n1cc2cc(Cl)ccc2n1 (stereo not drawn) [Compound I-0003]", "IC50": "0.2 to 0.5 µM"}
{"compound": "Cn1nccc1-c1ccc2c(cnn2C(Cc2ccccc2)C(=O)NO)c1 (stereo not drawn) [Compound I-0010]", "IC50": "0.05 to 0.2 µM"}
{"compound": "O=C(NO)C(Cc1ccccc1)n1ccc2cc(Cl)cnc21 (stereo not drawn) [Compound I-0195]", "IC50": "0.2 to 0.5 µM"}
{"compound": "CN1CCN(Cc2cccc3cn(C(Cc4ccccc4)C(=O)NO)nc23)CC1=O (stereo not drawn) [Compound I-0192]", "IC50": "0.05 to 0.2 µM"}
{"compound": "Cn1nccc1-c1nccc2c1cnn2C(Cc1ccccc1)C(=O)NO (stereo not drawn) [Compound I-0069]", "IC50": "0.05 to 0.2 µM"}

O=C(NO)C(Cc1ccccc1)n1ncc2cc(-c3ccncc3)ccc21 (stereo not drawn) [Compound I-0011] has a reported IC50 of 0.05 to 0.2 µM

CCc1ccc2c(cnn2C(Cc2ccccc2)C(=O)NO)c1 (stereo not drawn) [Compound I-0020] has a reported IC50 of 0.2 to 0.5 µM

O=C(NO)C(Cc1ccccc1)n1cc2cccc(CN3CCC4(CCOCC4)CC3)c2n1 (stereo not drawn) [Compound I-0187] has a reported IC50 of > 0.5 µM

====

biological target: Human recombinant Histone Deacetylase 8 (HDAC8) (Homo sapiens (Human)); assay: HDAC8 Enzymatic Assay (HDAC-Glo I/II luminescence); format: biochemical; details: class symbols, Table 14; read-out: HDAC8 IC50
pIC50: −log10 of the molar value.
property: pIC50

// below: answered molecules
{"molecule": "O=C(NO)C(Cc1ccccc1)n1cc2c(-c3cncnc3)cccc2n1 (centres unmarked) [Compound I-0063]", "measured value": "6.30 to 6.70"}
{"molecule": "Cc1n[nH]cc1-c1cccc2c(C#CC3CC3)n(C(Cc3ccccc3)C(=O)NO)nc12 (centres unmarked) [Compound I-0166]", "measured value": "≥ 7.30"}
{"molecule": "O=C(NO)C(Cc1ccccc1)n1nc2ccc(Cl)cc2c1C#CC1CC1 (centres unmarked) [Compound I-0005]", "measured value": "≥ 7.30"}
{"molecule": "O=C(NO)C(Cc1ccccc1)n1cc2cccc(CN3CCC(F)(F)CC3)c2n1 (centres unmarked) [Compound I-0189]", "measured value": "6.30 to 6.70"}

// next item, pIC50 requested
O=C(NO)C(Cc1ccccc1)n1ccc2nc(Cl)ccc21 (centres unmarked) [Compound I-0193] has a reported pIC50 of < 6.30

====

biological target: Human recombinant Histone Deacetylase 8 (HDAC8) (Homo sapiens (Human)); assay: HDAC8 Enzymatic Assay (HDAC-Glo I/II luminescence); assay type: biochemical; details: class symbols, Table 14; read-out: HDAC8 IC50
IC50 values for the compounds below.

// below: answered compounds
{"compound": "O=C(NO)C(Cc1ccccc1)n1cc2cccc(Br)c2n1 (centres unmarked) [Compound I-0068]", "test target": "Human recombinant Histone Deacetylase 8 (HDAC8) (Homo sapiens (Human))", "IC50": "200 to 500 nM"}
{"compound": "O=C(NO)C(Cc1ccccc1)n1cc2cccc(C(=O)N3CCOCC3)c2n1 (centres unmarked) [Compound I-0173]", "test target": "Human recombinant Histone Deacetylase 8 (HDAC8) (Homo sapiens (Human))", "IC50": "> 500 nM"}
{"compound": "O=C(NO)C(Cc1ccccc1)n1ncc2cc(-c3c(F)cccc3F)ccc21 (centres unmarked) [Compound I-0014]", "test target": "Human recombinant Histone Deacetylase 8 (HDAC8) (Homo sapiens (Human))", "IC50": "200 to 500 nM"}
{"compound": "COC1CCN(Cc2cccc3cn(C(Cc4ccccc4)C(=O)NO)nc23)CC1 (centres unmarked) [Compound I-0184]", "test target": "Human recombinant Histone Deacetylase 8 (HDAC8) (Homo sapiens (Human))", "IC50": "200 to 500 nM"}

// next item, IC50 requested
CN1CC=C(c2cccc3cn(C(Cc4ccccc4)C(=O)NO)nc23)CC1 (centres unmarked) [Compound I-0101] has a reported IC50 of > 500 nM

====

biological target: Human recombinant Histone Deacetylase 8 (HDAC8) (Homo sapiens (Human)); test: HDAC8 Enzymatic Assay (HDAC-Glo I/II luminescence); type: biochemical; settings: class symbols, Table 14; read-out: HDAC8 IC50
property: IC50

// below: answered compounds
{"compound": "O=C(NO)C(Cc1ccccc1)n1cc2cccc(CN3CCOCC3)c2n1 (stereo not shown)", "property": "IC50", "measured value": "200 to 500 nM"}
{"compound": "CN1CCN(c2ccc(-c3ccn4c(C(Cc5ccccc5)C(=O)NO)cnc4c3)cc2)CC1 (stereo not shown)", "property": "IC50", "measured value": "> 500 nM"}
{"compound": "O=C(NO)C(Cc1ccccc1)n1nc2c(Cl)nccc2c1C#CC1CC1 (stereo not shown)", "property": "IC50", "measured value": "≤ 50 nM"}
{"compound": "Cn1nccc1-c1ccn2c(C(Cc3ccccc3)C(=O)NO)cnc2c1 (stereo not shown)", "property": "IC50", "measured value": "200 to 500 nM"}
{"compound": "O=C(NO)C(Cc1ccccc1)n1ccc2cc(Cl)ncc21 (stereo not shown)", "property": "IC50", "measured value": "> 500 nM"}
{"compound": "O=C(NO)C(Cc1ccccc1)c1cnc2c(C3CC3)cccn12 (stereo not shown)", "property": "IC50", "measured value": "> 500 nM"}
{"compound": "CN1CC=C(c2cccc3nn(C(Cc4ccccc4)C(=O)NO)cc23)CC1 (stereo not shown)", "property": "IC50", "measured value": "> 500 nM"}
{"compound": "O=C(NO)C(Cc1ccccc1)n1cc2ccc(N3CCCCC3)cc2n1 (stereo not shown)", "property": "IC50", "measured value": "> 500 nM"}

O=C(NO)C(Cc1ccccc1)n1cc2cccc(CN3CCC4(CC3)COC4)c2n1 (stereo not shown) has a reported IC50 of > 500 nM

N#Cc1ccc(-c2cnc3c(cnn3C(Cc3ccccc3)C(=O)NO)c2)cc1 (stereo not shown) has a reported IC50 of > 500 nM

O=C(NO)C(Cc1ccccc1)n1cc2c(N3CCOCC3)cccc2n1 (stereo not shown) has a reported IC50 of > 500 nM

O=C(NO)C(Cc1ccccc1)n1cc2ccc(-c3cncnc3)cc2n1 (stereo not shown) has a reported IC50 of 200 to 500 nM

O=C(NO)C(Cc1ccccc1)n1ncc2cc(-c3cncnc3)cnc21 (stereo not shown) has a reported IC50 of 200 to 500 nM

NC(=O)c1ccc(-c2cc3cnn(C(Cc4ccccc4)C(=O)NO)c3cn2)cc1 (stereo not shown) has a reported IC50 of 200 to 500 nM

Cc1ccc2nn(C(Cc3ccccc3)C(=O)NO)cc2c1 (stereo not shown) has a reported IC50 of > 500 nM

O=C(NO)C(Cc1ccccc1)n1nc(I)c2ccnc(Cl)c21 (stereo not shown) has a reported IC50 of 50 to 200 nM

O=C(NO)C(Cc1ccccc1)n1cc2cncc(I)c2n1 (stereo not shown) has a reported IC50 of > 500 nM

CN1CCC(c2cccc3nn(C(Cc4ccccc4)C(=O)NO)cc23)CC1 (stereo not shown) has a reported IC50 of > 500 nM

CNC(=O)c1cccc(-c2cccc3c(C#CC4CC4)n(C(Cc4ccccc4)C(=O)NO)nc23)c1 (stereo not shown) has a reported IC50 of ≤ 50 nM

O=C(NO)C(Cc1ccccc1)n1cc2cncc(C#CC3CC3)c2n1 (stereo not shown) has a reported IC50 of 200 to 500 nM

O=C(NCCC1CCOCC1)c1cccc2c(C#CC3CC3)n(C(Cc3ccccc3)C(=O)NO)nc12 (stereo not shown) has a reported IC50 of ≤ 50 nM

O=C(NO)C(Cc1ccccc1)n1nc2c(Cl)cccc2c1C#CC1CC1 (stereo not shown) has a reported IC50 of ≤ 50 nM

O=C(NCCN1CCOCC1)c1cccc2cn(C(Cc3ccccc3)C(=O)NO)nc12 (stereo not shown) has a reported IC50 of 50 to 200 nM

O=C(NO)C(Cc1ccccc1)n1ncc2nc(-c3cncnc3)ccc21 (stereo not shown) has a reported IC50 of 50 to 200 nM

Cn1nccc1-c1ccc2cn(C(Cc3ccccc3)C(=O)NO)nc2c1 (stereo not shown) has a reported IC50 of 200 to 500 nM

Cn1nccc1-c1nccc2c(C#CC3CC3)n(C(Cc3ccccc3)C(=O)NO)nc12 (stereo not shown) has a reported IC50 of ≤ 50 nM

CN(C)C(=O)c1ccc(-c2cccn3c(C(Cc4ccccc4)C(=O)NO)cnc23)cc1 (stereo not shown) has a reported IC50 of > 500 nM

O=C(NO)C(Cc1ccccc1)n1ncc2c(-c3cncnc3)cccc21 (stereo not shown) has a reported IC50 of 50 to 200 nM
